# TEST SYSTEM: T1, interleukin-23 receptor (IL-23R), Q5VWK5
# T1 chain: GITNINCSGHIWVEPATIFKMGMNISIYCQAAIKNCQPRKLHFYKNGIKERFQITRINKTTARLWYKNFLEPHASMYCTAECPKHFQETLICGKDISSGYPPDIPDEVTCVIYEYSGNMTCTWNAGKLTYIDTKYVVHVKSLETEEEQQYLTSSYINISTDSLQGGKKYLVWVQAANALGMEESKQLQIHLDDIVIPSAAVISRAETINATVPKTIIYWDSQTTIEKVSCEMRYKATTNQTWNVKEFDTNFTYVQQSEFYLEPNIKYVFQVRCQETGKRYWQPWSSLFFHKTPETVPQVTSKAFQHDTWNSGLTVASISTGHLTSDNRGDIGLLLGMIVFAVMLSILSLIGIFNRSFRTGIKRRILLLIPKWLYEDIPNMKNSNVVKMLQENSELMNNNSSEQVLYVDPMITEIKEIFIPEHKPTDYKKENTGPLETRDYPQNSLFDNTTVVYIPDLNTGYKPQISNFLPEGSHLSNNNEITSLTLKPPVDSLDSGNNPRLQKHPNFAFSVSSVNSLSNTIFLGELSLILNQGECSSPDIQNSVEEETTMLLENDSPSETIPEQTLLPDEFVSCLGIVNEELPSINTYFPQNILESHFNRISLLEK
# EXPERIMENT SUMMARY: cell-based or functional assay
Starred links: 1 amine or outer side, 2 acyl side, 3 side chain; linkers in the order of their positions; H or OH if unused. Positions of bridges follow the written chain, without caps; N, C: chain ends. Non-standard residues stand in square brackets, D forms with d. No end group written: not given here. X1 = 3‑(7-(3-acetamidophenyl)-1H-indol-3-yl)‑2‑aminopropanoic acid, CC(=O)Nc1cccc(-c2cccc3c(CC(N[*:1])C(=O)[*:2])c[nH]c23)c1; 2Nal(6-OH) = N[C@@H](Cc1ccc2cc(O)ccc2c1)C(=O)O; Trp(7-Me) = Cc1cccc2c(C[C@H](N)C(=O)O)c[nH]c12; AEF = NCCOc1ccc(C[C@H](N)C(=O)O)cc1; 3Pal = N[C@@H](Cc1cccnc1)C(=O)O; Pen = CC(C)(S)[C@H](N)C(=O)O; lipid = not defined here; Thp = NC1(C(=O)O)CCOCC1; Sar = CNCC(=O)O
MEASURED METRIC: PBMC pSTAT3 IC50

# BINDER, PBMC pSTAT3 IC50
measured = [
    ("R[Pen]NT[Trp(7-Me)]K(Ac)[Pen][2‑amino‑3‑(4-(2-aminoethoxy)phenyl)propanoic acid][2‑amino‑3‑(6-(4-methoxyphenyl)naphthalen-2-yl)propanoic acid][Thp]EN[Thp] (disulfide 2-7 (inferred); ends not checked) [SEQ ID NO: 438]", "> 1 nM"),
    ("[Pen]NT[X1]K(Ac)[Pen][AEF][2Nal(6-OH)][Thp]EN[3Pal][Sar] (disulfide 1-6 (inferred); ends not checked) [SEQ ID NO: 132]", "< 10 pM"),
]

Please examine the following record next.
Input: Field request: PBMC pSTAT3 IC50 | item: [Pen]ET[Trp(7-Me)]K(lipid)[Pen][2‑amino‑3‑(4-(2-aminoethoxy)phenyl)propanoic acid][2‑amino‑3‑(6-hydroxynaphthalen-2-yl)propanoic acid][Thp]K(Ac)N[3Pal][Sar] (disulfide 1-6 (inferred); ends not checked; also: K5: lipidated lysine, lipid not given here) [SEQ ID NO: 214]
Output: < 1 nM
